Tested on: SK-MEL-2 melanoma
Procedure Text: NCI tumour cell line growth inhibition, 48 h
Measured Property: TGI

[[record]]
compound = "O=S(=O)(O)/C(=C\\c1ccccc1)c1ccccc1 (tested in a mixture with another compound)"
measured_property = "TGI"
experimental_value = "> 100 µM"

[[record]]
compound = "COC(=O)C1N=CSCC1(C)O (centres undefined)"
measured_property = "TGI"
experimental_value = "> 100 µM"

[[record]]
compound = "COc1ccc(-c2nnc(N3CCN(C(=O)CN4CCN(c5ccc(Cl)cc5)CC4)CC3)nc2-c2ccc(OC)cc2)cc1"
measured_property = "TGI"
experimental_value = "> 100 µM"

[[record]]
compound = "Cc1cccc2c1O/C(=C\\c1ccc([N+](=O)[O-])o1)C2=O"
measured_property = "TGI"
experimental_value = "3.52 µM"

[[record]]
compound = "CCNc1nc2c(ncn2C2CC(O)C(COP(=O)(O)O)O2)c(=O)[nH]1 (centres undefined)"
measured_property = "TGI"
experimental_value = "> 100 µM"

[[record]]
compound = "C/C1=C\\C/C=C(\\C)[C@H]2CC(CC/C(C)=C/CC1)[C@](C)(C=O)O2"
measured_property = "TGI"
experimental_value = "> 100 µM"

[[record]]
compound = "CC(C)(Oc1ccc2c(=O)cc(-c3ccccc3)oc2c1)C(=O)Nc1c(Cl)cccc1Cl"
measured_property = "TGI"
experimental_value = "> 100 µM"

[[record]]
compound = "COc1ccc(N=Nc2ccc3oc(=O)c(C(=O)Nc4ccc(Cl)cc4)cc3c2)cc1"
measured_property = "TGI"
experimental_value = "> 10 µM"

[[record]]
compound = "O=C(Nc1ccccc1O)c1ccc(CNC(=O)c2sccc2Nc2ccnc(C(F)(F)F)c2)cc1"
measured_property = "TGI"
experimental_value = "28.5 µM"

[[record]]
compound = "COC(=O)c1ccccc1NC(=O)C(=O)CC(=O)CC(c1ccccc1)c1c(O)c2ccccc2oc1=O (centres undefined)"
measured_property = "TGI"
experimental_value = "> 100 µM"

[[record]]
compound = "CCOC(=O)C(=O)NCCCN1CCOCC1"
measured_property = "TGI"
experimental_value = "> 100 µM"

[[record]]
compound = "OCC#Cc1ccccc1C#Cc1ccc(C#Cc2ccccc2C#CCO)s1"
measured_property = "TGI"
experimental_value = "35.8 µM"

[[record]]
compound = "CCc1cccc(CC)c1NC(=O)C1=C(C)NC(C)=C(C(=O)Nc2c(CC)cccc2CC)C1c1ccc2c(c1)OCO2"
measured_property = "TGI"
experimental_value = "33.7 µM"

[[record]]
compound = "COc1cc2c(c(OC)c1OC)C(=O)[C@H](Br)[C@H]2NC(=O)NCCCl"
measured_property = "TGI"
experimental_value = "> 100 µM"

[[record]]
compound = "CC(C)(CC#N)c1cc(CC(C)(C)c2cc(CC(C)(C)c3cc(C(C)(C)C4(C)OCCO4)no3)no2)no1"
measured_property = "TGI"
experimental_value = "> 100 µM"

[[record]]
compound = "CC(O)(CNS(=O)(=O)c1ccccc1)c1ccccc1 (centres undefined)"
measured_property = "TGI"
experimental_value = "> 100 µM"

[[record]]
compound = "CN1CCN(c2ccc(NC3=C(Cl)C(=O)c4ncccc4C3=O)cc2C#N)CC1"
measured_property = "TGI"
experimental_value = "4.69 µM"

[[record]]
compound = "CCOC(=O)C1=COC(C)(c2ccccc2)CC1=O (centres undefined)"
measured_property = "TGI"
experimental_value = "> 100 µM"

[[record]]
compound = "COc1ccc(C(=O)N(C(=O)N2CCN(c3ccccc3)CC2)S(=O)(=O)c2ccccc2)cc1"
measured_property = "TGI"
experimental_value = "35 µM"

[[record]]
compound = "O=c1c2ccccc2[nH]c(=S)n1-c1ccc(N=Nc2cccc3cc(O)ccc23)cc1"
measured_property = "TGI"
experimental_value = "> 100 µM"

[[record]]
compound = "O=S(=O)(NC1OCCCC1I)c1ccccc1 (centres undefined)"
measured_property = "TGI"
experimental_value = "> 100 µM"

[[record]]
compound = "COC1C(O)C(C)OC(OC2CC3CCC4C(CCC5(C)C(C6=CC(=O)OC6)CCC45O)C3(O)C(OC(C)=O)C2)C1O (centres undefined)"
measured_property = "TGI"
experimental_value = "10.1 µM"

[[record]]
compound = "O=C(O)C(O)C(O)C(O)C(=O)CO (centres undefined)"
measured_property = "TGI"
experimental_value = "> 100 µM"

[[record]]
compound = "Cc1cc(C)cc(Nc2ccc([N+](=O)[O-])c(NCCN3CCOCC3)n2)c1"
measured_property = "TGI"
experimental_value = "> 100 µM"


Hey, just so you know, these numbers are from PubChem BioAssay (NCI).
